This collection of values is drawn from patent US8609661B2.

TARGET_UNDER_TEST: human wildtype CFTR (Homo sapiens, UniProt P13569)
Construct: expressed in transfected cells; host or cells: Fischer rat thyroid (FRT) cells
Sequence (P13569 whole entry): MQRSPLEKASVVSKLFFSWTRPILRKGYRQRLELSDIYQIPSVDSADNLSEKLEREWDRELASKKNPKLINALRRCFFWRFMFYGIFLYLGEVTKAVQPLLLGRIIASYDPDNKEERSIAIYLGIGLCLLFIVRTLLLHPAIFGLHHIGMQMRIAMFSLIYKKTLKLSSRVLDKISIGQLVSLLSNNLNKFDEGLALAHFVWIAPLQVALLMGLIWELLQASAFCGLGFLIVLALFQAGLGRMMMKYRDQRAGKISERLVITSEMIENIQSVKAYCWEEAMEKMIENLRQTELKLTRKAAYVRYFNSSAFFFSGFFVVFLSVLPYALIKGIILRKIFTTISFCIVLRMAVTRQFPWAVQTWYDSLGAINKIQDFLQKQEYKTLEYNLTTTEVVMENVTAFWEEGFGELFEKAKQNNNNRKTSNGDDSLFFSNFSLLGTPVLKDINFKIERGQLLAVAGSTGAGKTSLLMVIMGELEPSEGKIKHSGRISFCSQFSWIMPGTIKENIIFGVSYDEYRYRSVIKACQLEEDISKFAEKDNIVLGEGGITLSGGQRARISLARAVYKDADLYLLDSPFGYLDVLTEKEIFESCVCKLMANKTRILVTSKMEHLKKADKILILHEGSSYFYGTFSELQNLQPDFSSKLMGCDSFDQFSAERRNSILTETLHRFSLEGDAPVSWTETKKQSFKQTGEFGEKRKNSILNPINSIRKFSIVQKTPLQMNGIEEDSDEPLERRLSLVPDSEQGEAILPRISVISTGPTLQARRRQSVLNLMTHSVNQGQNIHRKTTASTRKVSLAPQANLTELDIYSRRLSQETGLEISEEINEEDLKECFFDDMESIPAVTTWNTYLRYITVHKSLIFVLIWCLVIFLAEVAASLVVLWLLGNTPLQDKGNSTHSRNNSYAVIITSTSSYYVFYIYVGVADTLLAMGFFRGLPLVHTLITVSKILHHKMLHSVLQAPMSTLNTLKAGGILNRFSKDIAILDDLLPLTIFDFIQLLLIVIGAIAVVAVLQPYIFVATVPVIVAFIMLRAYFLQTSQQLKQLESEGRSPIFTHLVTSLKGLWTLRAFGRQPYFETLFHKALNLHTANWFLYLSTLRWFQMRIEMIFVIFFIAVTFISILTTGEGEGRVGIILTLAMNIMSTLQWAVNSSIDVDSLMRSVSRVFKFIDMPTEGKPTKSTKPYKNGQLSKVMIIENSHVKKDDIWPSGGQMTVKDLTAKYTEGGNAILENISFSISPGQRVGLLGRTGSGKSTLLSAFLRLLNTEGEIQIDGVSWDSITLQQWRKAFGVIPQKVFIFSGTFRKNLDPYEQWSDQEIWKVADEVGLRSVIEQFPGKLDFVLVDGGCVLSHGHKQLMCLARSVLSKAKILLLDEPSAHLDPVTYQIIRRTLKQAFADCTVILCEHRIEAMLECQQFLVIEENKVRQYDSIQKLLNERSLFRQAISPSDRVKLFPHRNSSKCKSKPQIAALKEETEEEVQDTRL
PROTOCOL_DETAILS: Fluorescence platereader assay of CFTR-mediated iodide influx (YFP quenching) in FRT cells
Assay type: cell-based
RUN_PARAMETERS: FRT; Table 2; screening, 5 μM; read-out: % Inhibition at 5 μM
Protocol: A. Cell lines and compounds—Fischer rat thyroid (FRT) cells co-expressing human wildtype CFTR and the halide indicator YFP-H148Q/1152L were generated as described (see, e.g., Ma et al., J. Clin. Invest. 110:1651-1658 (2002)). […] B. Compound Screening—Assays were performed using an automated screening platform (Beckman) equipped with FLUOStar fluorescence platereaders (BMG Lab Technologies, Offenburg, Germany) as described (see Ma et al., supra). […]
Recorded inhibition at 5 µM by entry

MOLECULE: Cc1ccccc1-c1c2c(=O)n(C)c(=O)n(C)c2c2n1-c1ccccc1NC2c1ccc(C#N)cc1 (stereo not shown)
TARGET_UNDER_TEST: human wildtype CFTR (Homo sapiens, UniProt P13569)
inhibition at 5 µM: < 10%

MOLECULE: COc1ccc(-c2c3c(=O)n(C)c(=O)n(C)c3c3n2-c2ccccc2NC3c2cccc(F)c2)cc1 (stereo not shown)
TARGET_UNDER_TEST: human wildtype CFTR (Homo sapiens, UniProt P13569)
inhibition at 5 µM: < 10%

MOLECULE: COc1cc(C2Nc3ccccc3-n3c(-c4ccccc4F)c4c(=O)n(C)c(=O)n(C)c4c32)ccc1O (stereo not shown)
TARGET_UNDER_TEST: human wildtype CFTR (Homo sapiens, UniProt P13569)
inhibition at 5 µM: 13%

MOLECULE: COc1ccc(O)c(C2Nc3ccccc3-n3c(-c4ccccc4)c4c(=O)n(C)c(=O)n(C)c4c32)c1 (stereo not shown)
TARGET_UNDER_TEST: human wildtype CFTR (Homo sapiens, UniProt P13569)
inhibition at 5 µM: < 10%

---

Recorded inhibition at 25 µM by entry
TARGET_UNDER_TEST: human wildtype CFTR (Homo sapiens)
Construct: expressed in transfected cells; host or cells: Fischer rat thyroid (FRT) cells
PROTOCOL_DETAILS: Fluorescence platereader assay of CFTR-mediated iodide influx (YFP quenching) in FRT cells
Type: cell-based
RUN_PARAMETERS: FRT; Table 2; screening, 25 μM; read-out: % Inhibition at 25 μM

COMPOUND: COc1ccccc1C1Nc2cc(C)c(C)cc2-n2c(-c3ccccc3)c3c(=O)n(C)c(=O)n(C)c3c21 (centres unmarked)
UNIT_STRING: %
CENSORING_QUALIFIER: =
inhibition at 25 µM: 47
--
COMPOUND: CCOc1cc(C2Nc3ccccc3-n3c(-c4ccccc4)c4c(=O)n(C)c(=O)n(C)c4c32)ccc1O (centres unmarked)
UNIT_STRING: %
CENSORING_QUALIFIER: =
inhibition at 25 µM: 47
--
COMPOUND: Cn1c(=O)c2c(-c3ccccc3)n3c(c2n(C)c1=O)C(c1ccc(O)cc1)Nc1ccccc1-3 (centres unmarked) [PPQ-207]
UNIT_STRING: %
CENSORING_QUALIFIER: =
inhibition at 25 µM: 86
--
COMPOUND: Cn1c(=O)c2c(-c3ccccc3)n3c(c2n(C)c1=O)C(c1ccc(O)cc1O)Nc1ccccc1-3 (centres unmarked)
UNIT_STRING: %
CENSORING_QUALIFIER: =
inhibition at 25 µM: 35
--
COMPOUND: Cn1c(=O)c2c(-c3ccccc3)n3c(c2n(C)c1=O)C(c1cccc([N+](=O)[O-])c1)Nc1ccccc1-3 (centres unmarked) [PPQ-202]
UNIT_STRING: %
CENSORING_QUALIFIER: =
inhibition at 25 µM: 90
--
COMPOUND: Cc1cccc(-c2c3c(=O)n(C)c(=O)n(C)c3c3n2-c2ccccc2NC3c2ccc(C)o2)c1 (centres unmarked) [PPQ-101]
UNIT_STRING: %
CENSORING_QUALIFIER: >
inhibition at 25 µM: 95
--
COMPOUND: Cc1cccc(-c2c3c(=O)n(C)c(=O)n(C)c3c3n2-c2ccccc2NC3c2ccc(F)cc2)c1 (centres unmarked) [PPQ-238]
UNIT_STRING: %
CENSORING_QUALIFIER: =
inhibition at 25 µM: 57
--
COMPOUND: Cc1ccccc1-c1c2c(=O)n(C)c(=O)n(C)c2c2n1-c1ccccc1NC2c1cccc([N+](=O)[O-])c1 (centres unmarked) [PPQ-213]
UNIT_STRING: %
CENSORING_QUALIFIER: =
inhibition at 25 µM: 96

---

TARGET_UNDER_TEST: human wildtype CFTR (Homo sapiens, UniProt P13569)
Construct: expressed in transfected cells; host or cells: Fischer rat thyroid (FRT) cells
PROTOCOL_DETAILS: Fluorescence platereader assay of CFTR-mediated iodide influx (YFP quenching) in FRT cells
Assay type: cell-based
RUN_PARAMETERS: FRT; Table 2; screening, 5 μM; read-out: % Inhibition at 5 μM
Binary call on inhibition at 5 µM: Criterion met from 50% upward, Criterion not met beneath that.

COMPOUND: COc1cc(O)ccc1C1Nc2ccccc2-n2c(-c3ccccc3)c3c(=O)n(C)c(=O)n(C)c3c21 (stereo not shown) [PPQ-208]
GROUP: Criterion not met
--
COMPOUND: Cc1ccc(C2Nc3cc(C)c(C)cc3-n3c(-c4ccccc4F)c4c(=O)n(C)c(=O)n(C)c4c32)o1 (stereo not shown) [PPQ-105]
GROUP: Criterion met
--
COMPOUND: COc1ccc(-c2c3c(=O)n(C)c(=O)n(C)c3c3n2-c2ccccc2NC3c2cccs2)cc1 (stereo not shown)
GROUP: Criterion not met
--
COMPOUND: COc1ccc(-c2c3c(=O)n(C)c(=O)n(C)c3c3n2-c2ccccc2NC3c2ccccc2Cl)cc1 (stereo not shown)
GROUP: Criterion not met
--
COMPOUND: Cc1cccc(-c2c3c(=O)n(C)c(=O)n(C)c3c3n2-c2ccccc2NC3c2ccc3c(c2)OCO3)c1 (stereo not shown) [PPQ-302]
GROUP: Criterion not met
--
COMPOUND: COc1cccc(C2Nc3ccccc3-n3c(-c4cccc(C)c4)c4c(=O)n(C)c(=O)n(C)c4c32)c1O (stereo not shown)
GROUP: Criterion not met
--
COMPOUND: Cc1ccc(C2Nc3ccccc3-n3c(-c4ccccc4C)c4c(=O)n(C)c(=O)n(C)c4c32)cc1 (stereo not shown)
GROUP: Criterion not met
--
COMPOUND: Cc1ccc(C2Nc3cc(C)c(C)cc3-n3c(-c4ccccc4)c4c(=O)n(C)c(=O)n(C)c4c32)o1 (stereo not shown) [PPQ-104]
GROUP: Criterion met
--
COMPOUND: COc1ccc(-c2c3c(=O)n(C)c(=O)n(C)c3c3n2-c2ccccc2NC3c2cccc(O)c2)cc1 (stereo not shown)
GROUP: Criterion not met
--
COMPOUND: Cc1cccc(C2Nc3ccccc3-n3c(-c4ccccc4C)c4c(=O)n(C)c(=O)n(C)c4c32)c1 (stereo not shown) [PPQ-217]
GROUP: Criterion not met
--
COMPOUND: Cc1ccccc1-c1c2c(=O)n(C)c(=O)n(C)c2c2n1-c1ccccc1NC2c1ccc(O)cc1 (stereo not shown) [PPQ-222]
GROUP: Criterion not met
--
COMPOUND: Cc1cccc(-c2c3c(=O)n(C)c(=O)n(C)c3c3n2-c2ccccc2NC3c2cccc([N+](=O)[O-])c2)c1 (stereo not shown) [PPQ-225]
GROUP: Criterion met
--
COMPOUND: Cc1cc2c(cc1C)-n1c(-c3ccccc3)c3c(=O)n(C)c(=O)n(C)c3c1C(c1cccs1)N2 (stereo not shown) [PPQ-115]
GROUP: Criterion not met
--
COMPOUND: COc1cccc(C2Nc3ccccc3-n3c(-c4cccc(C)c4)c4c(=O)n(C)c(=O)n(C)c4c32)c1 (stereo not shown) [PPQ-210]
GROUP: Criterion met
--
COMPOUND: Cc1cccc(-c2c3c(=O)n(C)c(=O)n(C)c3c3n2-c2ccccc2NC3c2ccc(O)c(O)c2)c1 (stereo not shown) [PPQ-243]
GROUP: Criterion not met

---

Recorded inhibition at 5 µM by entry
TARGET_UNDER_TEST: human wildtype CFTR (Homo sapiens, UniProt P13569)
Construct: expressed in transfected cells; host or cells: Fischer rat thyroid (FRT) cells
PROTOCOL_DETAILS: Fluorescence platereader assay of CFTR-mediated iodide influx (YFP quenching) in FRT cells
Type: cell-based
RUN_PARAMETERS: FRT; Table 2; screening, 5 μM; read-out: % Inhibition at 5 μM
OUTCOME_MEASURE: inhibition at 5 µM (%)

COMPOUND: Cc1cccc(-c2c3c(=O)n(C)c(=O)n(C)c3c3n2-c2ccccc2NC3c2ccc(C)o2)c1 (stereo not shown) [PPQ-101]
TARGET_UNDER_TEST: human wildtype CFTR (Homo sapiens, UniProt P13569)
UNIT_STRING: %
CENSORING_QUALIFIER: >
MEASURED_RESULT: 95
//
COMPOUND: COc1ccc(O)c(C2Nc3ccccc3-n3c(-c4cccc(C)c4)c4c(=O)n(C)c(=O)n(C)c4c32)c1 (stereo not shown) [PPQ-246]
TARGET_UNDER_TEST: human wildtype CFTR (Homo sapiens, UniProt P13569)
UNIT_STRING: %
CENSORING_QUALIFIER: <
MEASURED_RESULT: 10
//
COMPOUND: Cc1ccc(C2Nc3ccccc3-n3c(-c4ccc(Cl)cc4)c4c(=O)n(C)c(=O)n(C)c4c32)o1 (stereo not shown) [PPQ-111]
TARGET_UNDER_TEST: human wildtype CFTR (Homo sapiens, UniProt P13569)
UNIT_STRING: %
CENSORING_QUALIFIER: =
MEASURED_RESULT: 31
//
COMPOUND: Cc1ccccc1-c1c2c(=O)n(C)c(=O)n(C)c2c2n1-c1ccccc1NC2c1cccc([N+](=O)[O-])c1 (stereo not shown) [PPQ-213]
TARGET_UNDER_TEST: human wildtype CFTR (Homo sapiens, UniProt P13569)
UNIT_STRING: %
CENSORING_QUALIFIER: =
MEASURED_RESULT: 64
//
COMPOUND: Cc1cc2c(cc1C)-n1c(-c3ccccc3)c3c(=O)n(C)c(=O)n(C)c3c1C(c1ccc(O)cc1O)N2 (stereo not shown) [PPQ-235]
TARGET_UNDER_TEST: human wildtype CFTR (Homo sapiens, UniProt P13569)
UNIT_STRING: %
CENSORING_QUALIFIER: =
MEASURED_RESULT: 12
//
COMPOUND: COc1cccc(C2Nc3ccccc3-n3c(-c4ccccc4C)c4c(=O)n(C)c(=O)n(C)c4c32)c1 (stereo not shown) [PPQ-216]
TARGET_UNDER_TEST: human wildtype CFTR (Homo sapiens, UniProt P13569)
UNIT_STRING: %
CENSORING_QUALIFIER: =
MEASURED_RESULT: 62
//
COMPOUND: COc1cc(O)ccc1C1Nc2ccccc2-n2c(-c3ccccc3F)c3c(=O)n(C)c(=O)n(C)c3c21 (stereo not shown)
TARGET_UNDER_TEST: human wildtype CFTR (Homo sapiens, UniProt P13569)
UNIT_STRING: %
CENSORING_QUALIFIER: <
MEASURED_RESULT: 10
